Field: fold induction at 50 µM. Provide a value for each of the compounds that follow.
Test system: S. aureus strain USA300-0114
TEST DESCRIPTION: AK assay 384-well format, Prestwick library screening
Format: cell-based, Staphylococcus aureus
CONDITION SUMMARY: Staphylococcus aureus, USA300, 3 h; planktonic S. aureus; 50 μM final drug concentration; positive cutoff 3-fold increase; read-out: AK-based Prestwick library screening result, S. aureus (fold increase in extracellular AK activity)
Structures can show the parent of a compound that is named as a salt.
Answers are plain numbers.

Completed entries (count: 3):
{"columns": ["COMPOUND", "fold induction at 50 µM"],
 "data": [
  ["COc1ccccc1OCC(O)CN1CCN(CC(=O)Nc2c(C)cccc2C)CC1 (stereo not shown)", 1],
  ["CC1(C)S[C@@H]2[C@H](NC(=O)Cc3ccccc3)C(=O)N2[C@H]1C(=O)O [Benzylpenicillin sodium]", 0.8],
  ["CCCOc1cc(N)ccc1C(=O)OCCN(CC)CC [Propoxycaine hydrochloride]", 0.7]
]}

Lab note: next compound to report on.
Query: Give the measured fold induction at 50 µM for Cc1c(OCC(F)(F)F)ccnc1C[S+]([O-])c1nc2ccccc2[nH]1 (stereo not shown)
Reply: 0.2

Origin of the recorded values: patent US10004701B2
